# ASSAY SYSTEM: KHK—C (Homo sapiens (Human))
# PROTOCOL DESCRIPTION: KHK—C ADP-Glo kinase inhibitory activity assay
# Type: biochemical
# CONDITION CONTEXT: 1 nM KHK—C, 200 μM D-Fructose, 100 μM ATP, ADP-Glo luminescence
# Description: (KHK—C ADP-Glo Kinase Inhibitory Activity Assay) Y=Bottom+(Top−Bottom)/(1+10^((LogIC50−X)×HillSlope)) • X: Log value of compound concentration • Y: Inhibition ratio (%) [formula] • Negative control: DMSO
ENDPOINT NAME: IC50 (nM)

                                   molecule                  assay_system  experimental_result
0  C[C@H]1CCN1c1nc(N2CC[C@H](CC(=O)O)C2)c2c(n1)C(F)(F)CC2 [Example 36]  KHK—C (Homo sapiens (Human))                 13.6
1  C[C@H]1CCN1c1nc(N2CC[C@H](CCC(=O)O)C2)cc(C(F)(F)F)c1C#N [Example 20]  KHK—C (Homo sapiens (Human))                 15.4
2  C[C@H]1CCN1c1nc(N2CCC(CCC(=O)O)C2)cc(C(F)(F)F)c1C#N (some centres unmarked) [Example 11]  KHK—C (Homo sapiens (Human))                 12.6
3  C[C@H]1CCN1c1nc(N2CC3(CCC(C(=O)O)CC3)C2)cc(C(F)(F)F)c1C#N [Example 2]  KHK—C (Homo sapiens (Human))                  143
4  C[C@H]1CCN1c1nc(N2CC3(CCC(C(=O)O)C3)C2)cc(C(F)(F)F)c1C#N (some centres unmarked) [Example 7]  KHK—C (Homo sapiens (Human))                   36

[P] C[C@H]1CCN1c1nc(N2CC3CN(CC(=O)O)CC3C2)c2c(n1)C(F)(F)CC2 (some centres unmarked) [Example 35]
[Q] C[C@H]1CCN1c1nc(N2CC[C@H](CC(=O)O)C2)cc2nccnc12 [Example 41]
Which has the smaller recorded IC50, P or Q ? Your answer should be the label of the entry you select.
P

* * *

# ASSAY SYSTEM: KHK—C (Homo sapiens (Human))
# PROTOCOL DESCRIPTION: KHK—C ADP-Glo kinase inhibitory activity assay
# Assay type: biochemical
# CONDITION CONTEXT: 1 nM KHK—C, 200 μM D-Fructose, 100 μM ATP, ADP-Glo luminescence
ENDPOINT NAME: IC50 (nM)

# count of solved cases: 5
                                   compound  endpoint_name  unit_abbrev  experimental_result
0  C[C@H]1CCN1c1nc(N2CC(CC(=O)O)C2)c2c(n1)C(F)(F)CC2 [Example 25]           IC50           nM                   47
1  C[C@H]1[C@H](O)CN1c1nc(N2CC3(CC(C(=O)O)C3)C2)cc(C(F)(F)F)c1C#N [Example 5]           IC50           nM                  110
2  C[C@H]1CCN1c1nc(N2CCC3(CC(C(=O)O)C3)C2)c2c(n1)C(F)(F)CC2 (some centres unmarked) [Example 26]           IC50           nM                 42.9
3  CC(C(=O)O)[C@H]1[C@@H]2CN(c3cc(C(F)(F)F)c(C#N)c(N4CC[C@@H]4C)n3)C[C@@H]21 (some centres unmarked) [Example 10]           IC50           nM                 12.6
4  C[C@H]1CCN1c1nc(N2CCC(CC(=O)O)C2)c2c(n1)C(F)(F)CC2 (some centres unmarked) [Example 32]           IC50           nM                 10.4

[a] C[C@H]1CCN1c1nc(N2CC[C@@H](CCC(=O)O)C2)cc(C(F)(F)F)c1C#N [Example 21]
[b] C[C@H]1[C@H](O)CN1c1nc(N2CC3(CC(C(=O)O)C3)C2)c2c(n1)C(F)(F)CC2 [Example 31]
Select one. Lower IC50: a or b Choose, then provide that item's label.
a
(a: 81.2 nM, b: 134 nM)

* * *

# ASSAY SYSTEM: KHK—C (Homo sapiens (Human), UniProt P50053)
# Sequence (P50053 whole entry): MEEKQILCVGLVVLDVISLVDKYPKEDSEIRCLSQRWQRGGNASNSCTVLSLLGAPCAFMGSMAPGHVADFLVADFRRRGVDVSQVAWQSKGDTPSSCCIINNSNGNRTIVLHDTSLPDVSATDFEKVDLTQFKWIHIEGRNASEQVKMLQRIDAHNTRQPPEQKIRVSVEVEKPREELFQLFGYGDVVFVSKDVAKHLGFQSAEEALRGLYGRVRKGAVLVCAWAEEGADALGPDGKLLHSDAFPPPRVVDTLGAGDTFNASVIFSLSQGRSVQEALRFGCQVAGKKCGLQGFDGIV
# PROTOCOL DESCRIPTION: KHK—C ADP-Glo kinase inhibitory activity assay
# Format: biochemical
# CONDITION CONTEXT: 1 nM KHK—C, 200 μM D-Fructose, 100 μM ATP, ADP-Glo luminescence
ENDPOINT NAME: IC50 (nM)

                                   compound  experimental_result
0  C[C@H]1CCN1c1nc(N2CCC3(CC(C(=O)O)C3)C2)cc(C(F)(F)F)c1C(N)=O (stereo partly shown)                 6300
1  C[C@@H](C(=O)O)[C@H]1[C@@H]2CN(c3cc(C(F)(F)F)c(C#N)c(N4CC[C@@H]4C)n3)C[C@@H]21                  100
2  C[C@H]1CCN1c1nc(N2CCC(CC(=O)O)CC2)c2c(n1)C(F)(F)CC2                 52.8
3  C[C@H]1CCN1c1nc(N2C[C@@H]3[C@@H](CC(=O)O)[C@@H]3C2)cc2nc(C#N)cnc12                 30.2
4  C[C@H]1CCN1c1nc(N2CC3(CC(CC(=O)O)C3)C2)cc(C(F)(F)F)c1C#N                   27
5  C[C@H]1CCN1c1nc(N2CC3(CC(C(=O)O)C3)C2)cc(C(F)(F)F)c1C#N                 27.9

[I] C[C@H]1CCN1c1nc(N2CCC3(CC2)CC(C(=O)O)C3)cc(C(F)(F)F)c1C#N
[II] C[C@H]1CCN1c1nc(N2C[C@@H]3[C@@H](CC(=O)O)[C@@H]3C2)cc(C(F)(F)F)c1C#N
I'm curious, which of these has a smaller IC50 number: I or II ? Label of pick, please.
II

[I] C[C@H](C(=O)O)[C@H]1[C@@H]2CN(c3cc(C(F)(F)F)c(C#N)c(N4CC[C@@H]4C)n3)C[C@@H]21
[II] C[C@H]1CCN1c1nc(N2CC3(CCC(C(=O)O)C3)C2)c2c(n1)C(F)(F)CC2 (stereo partly shown)
[III] C[C@H]1CCN1c1nc(N2CC3(CC(CC(=O)O)C3)C2)c2c(n1)C(F)(F)CC2
[IV] C[C@H]1CCN1c1nc(N2CC3(C2)CS(=O)(=O)C3)cc(C(F)(F)F)c1C#N
Given 4 compounds, produce a descending ranking by IC50. # answer = labels listed in requested order
IV, II, III, I
(IV: 198 nM, II: 59 nM, III: 40 nM, I: 24.7 nM)

* * *

Each entry below lists one item and its recorded IC50 value.
# ASSAY SYSTEM: UniProtKB P50053
# PROTOCOL DESCRIPTION: KHK—C ADP-Glo kinase inhibitory activity assay
# Assay type: biochemical
# CONDITION CONTEXT: 1 nM KHK—C, 200 μM D-Fructose, 100 μM ATP, ADP-Glo luminescence
Return type: number; implicit unit nM.

>>> print(df.to_string())
                                   molecule      assay_system  experimental_result
0  C[C@H]1CCN1c1nc(N2CC3(CN(CC(=O)O)C3)C2)cc(C(F)(F)F)c1C#N [Example 15]  UniProtKB P50053                  212

I'd like to know its IC50. The molecule in question is C[C@H]1CCN1c1nc(N2CC3(CC(C(=O)O)C3)C2)c2c(n1)C(F)(F)CC2 [Example 24]
78.3

From: patent US20250145619A1
